- System: A549
- procedure_text: NCI tumour cell line growth inhibition, 48 h
Calls of active or inactive are those of the source. Cut-off read from the data, not from the text of the source: active = GI50 up to about 1.1 µM and inactive = higher. Where a SMILES comes first, the peptide text is derived from it. [ ]: non-standard residue; d: D form. The star is where a group is joined. ξ: configuration not given here. ξD = NC(CC(=O)O)C(=O)O; Boc = CC(C)(C)OC(=O)*; Aib = CC(C)(N)C(=O)O; OBn = c1ccc(CO*)cc1

{"compound": "CCOC(=O)CCC(NC(=O)C(CCC(=O)OCC)NC(=O)C(Cc1ccc([N+](=O)[O-])cc1)NC(C)=O)C(=O)NNC(=O)OC(C)(C)C (stereo not given)", "GI50": "> 100 µM (inactive)"}
{"compound": "CC(C)(C)OC(=O)NC(CC(=O)OCc1ccccc1)C(=O)NC(C)(C)C(N)=O (stereo not given) (Boc-[ξD](OBn)-[Aib]-NH2)", "GI50": "> 100 µM (inactive)"}
{"compound": "CCOC(=O)C1S/C(=N/c2ccc(Cl)cc2C)N=C1C (stereo not given)", "GI50": "21.4 µM (inactive)"}
{"compound": "Fc1ccc(C(OCCN2CCC3CCC(C2)N3Cc2cc3ccccc3[nH]2)c2ccc(F)cc2)cc1 (stereo not given)", "GI50": "2.01 µM (inactive)"}
{"compound": "COc1ccc(NCc2c(O)ccc3ccccc23)cc1", "GI50": "61.4 µM (inactive)"}

###

- Test system: OVCAR-3
- procedure_text: NCI tumour cell line growth inhibition, 48 h
Calls of active or inactive are those of the source. Rule as the data show it: active = GI50 up to about 1.1 µM and inactive = higher.

{"compound": "CC(C)=C1CCC(CN2CCOCC2)C1=O (centres undefined)", "target_system": "OVCAR-3", "GI50": "8.18 µM (inactive)"}
{"compound": "COc1cc2ccc1NC(=O)N1CCN(CC1)C(=O)Nc1ccc(cc1OC)-c1ccc(c(OC)c1)NC(=O)N1CCN(CC1)C(=O)Nc1ccc-2cc1OC", "target_system": "OVCAR-3", "GI50": "> 100 µM (inactive)"}
{"compound": "O=C(NCCc1ccccn1)c1ccc2cc(C(=O)N3CC(CCl)c4ccc([N+](=O)[O-])cc43)[nH]c2c1 (centres undefined)", "target_system": "OVCAR-3", "GI50": "5.52 µM (inactive)"}
{"compound": "C/C(=N\\NC(=O)C[n+]1ccccc1)c1sc(-c2nc(C)c(/C(C)=N/NC(=O)C[n+]3ccccc3)s2)nc1C", "target_system": "OVCAR-3", "GI50": "> 100 µM (inactive)"}

###

Known GI50 of a selection of compounds
- Tested on: BT-549
- procedure_text: NCI tumour cell line growth inhibition, 48 h
Calls of active or inactive are those of the source. Cut-off read from the data, not from the text of the source: active = GI50 up to about 1.1 µM and inactive = higher.
reported_property: GI50

{"compound": "CC(=O)c1sc2c(c1O)c(=O)n(-c1ccccc1)c(=S)n2-c1ccccc1", "reported_property": "GI50", "reported_value": "95.3 µM (inactive)"}
{"compound": "C=CCN1CCC(c2cc(C(=O)OCC)[nH]c2-c2cc(C)no2)C1=O (stereo not drawn)", "reported_property": "GI50", "reported_value": "> 100 µM (inactive)"}
{"compound": "CSC1=C(C(=O)Nc2ccc(Cl)cc2)C(N)=NC1=O", "reported_property": "GI50", "reported_value": "> 100 µM (inactive)"}
{"compound": "CC(C)C[C@H]1[C@@H](OCc2ccccc2)COS(=O)(=O)N1[C@H](C)c1ccccc1", "reported_property": "GI50", "reported_value": "> 58.2 µM (inactive)"}
{"compound": "COC(C)(C)C1(O)CCC(C)CC1=O (stereo not drawn)", "reported_property": "GI50", "reported_value": "> 100 µM (inactive)"}
{"compound": "CC(=O)OCc1cc(OC(C)=O)c2cc3c(OC(C)=O)cccc3c(OC(C)=O)c2c1", "reported_property": "GI50", "reported_value": "20.1 µM (inactive)"}
{"compound": "O=C(O)c1ccccc1/N=N\\c1c(O)c(S(=O)(=O)O)cc2cc(S(=O)(=O)O)ccc12", "reported_property": "GI50", "reported_value": "0.201 µM (active)"}
{"compound": "CC(C)(C)OC(=O)N1CCC(C(=O)O)CC1", "reported_property": "GI50", "reported_value": "> 100 µM (inactive)"}
{"compound": "Cc1ccc(-c2c(C#N)c(-c3ccc(C)cc3)n(NS(=O)(=O)c3ccccc3)c(=O)c2C#N)cc1", "reported_property": "GI50", "reported_value": "25.4 µM (inactive)"}
{"compound": "CCOC(=O)c1cnn2c1ncc1c(=O)n(NC(N)=O)ccc12", "reported_property": "GI50", "reported_value": "94.8 µM (inactive)"}
{"compound": "CC1(C)CC2=NC(SSC3=C(C#N)C(c4ccc(Br)cc4)C4=C(O)CC(C)(C)CC4=N3)=C(C#N)C(c3ccc(Br)cc3)C2=C(O)C1 (stereo not drawn)", "reported_property": "GI50", "reported_value": "> 100 µM (inactive)"}
{"compound": "CCC12CCCN3CCc4c(n(c5ccccc45)C(O)(C(=O)OC)C1)C32 (stereo not drawn)", "reported_property": "GI50", "reported_value": "> 100 µM (inactive)"}
{"compound": "CC(C)=CCCC(C)C1=C(O)C(=O)C(C)=CC1=O (stereo not drawn)", "reported_property": "GI50", "reported_value": "14.6 µM (inactive)"}
{"compound": "CC(=O)C(O)N1C(=O)C=CC1=O (stereo not drawn)", "reported_property": "GI50", "reported_value": "8 µM (inactive)"}
{"compound": "CCOC(=O)CCC(NC(=O)C(CCC(=O)OCC)NC(=O)C(Cc1ccc([N+](=O)[O-])cc1)NC(C)=O)C(=O)NNC(=O)OC(C)(C)C (stereo not drawn)", "reported_property": "GI50", "reported_value": "> 100 µM (inactive)"}
{"compound": "C=C1CC[C@@]2(C)[C@@H]([C@@H]1C)[C@H]1CC[C@@H]3[C@@]4(C)CC[C@H](O)C(C)(C)[C@@H]4CC[C@@]3(C)[C@]1(C)C[C@@H]2O", "reported_property": "GI50", "reported_value": "10 µM (inactive)"}
{"compound": "COc1ccc(/N=N/C(=O)NC(Cc2ccccc2)C(=O)O)cc1 (stereo not drawn)", "reported_property": "GI50", "reported_value": "> 100 µM (inactive)"}
{"compound": "C[C@H](CCC(=O)O[C@@H]1CC[C@@]2(C)C(CC[C@H]3[C@@H]4CC[C@H]([C@H](C)CCc5nc6ccccc6[nH]5)[C@@]4(C)CC[C@@H]32)C1)[C@H]1CC[C@H]2[C@@H]3CCC4C[C@H](O)CC[C@]4(C)[C@H]3CC[C@]12C (stereo partly drawn)", "reported_property": "GI50", "reported_value": "> 100 µM (inactive)"}
